- testSystem: Tyrosine-protein kinase JAK3 (Homo sapiens)
- Sequence (P52333 whole entry): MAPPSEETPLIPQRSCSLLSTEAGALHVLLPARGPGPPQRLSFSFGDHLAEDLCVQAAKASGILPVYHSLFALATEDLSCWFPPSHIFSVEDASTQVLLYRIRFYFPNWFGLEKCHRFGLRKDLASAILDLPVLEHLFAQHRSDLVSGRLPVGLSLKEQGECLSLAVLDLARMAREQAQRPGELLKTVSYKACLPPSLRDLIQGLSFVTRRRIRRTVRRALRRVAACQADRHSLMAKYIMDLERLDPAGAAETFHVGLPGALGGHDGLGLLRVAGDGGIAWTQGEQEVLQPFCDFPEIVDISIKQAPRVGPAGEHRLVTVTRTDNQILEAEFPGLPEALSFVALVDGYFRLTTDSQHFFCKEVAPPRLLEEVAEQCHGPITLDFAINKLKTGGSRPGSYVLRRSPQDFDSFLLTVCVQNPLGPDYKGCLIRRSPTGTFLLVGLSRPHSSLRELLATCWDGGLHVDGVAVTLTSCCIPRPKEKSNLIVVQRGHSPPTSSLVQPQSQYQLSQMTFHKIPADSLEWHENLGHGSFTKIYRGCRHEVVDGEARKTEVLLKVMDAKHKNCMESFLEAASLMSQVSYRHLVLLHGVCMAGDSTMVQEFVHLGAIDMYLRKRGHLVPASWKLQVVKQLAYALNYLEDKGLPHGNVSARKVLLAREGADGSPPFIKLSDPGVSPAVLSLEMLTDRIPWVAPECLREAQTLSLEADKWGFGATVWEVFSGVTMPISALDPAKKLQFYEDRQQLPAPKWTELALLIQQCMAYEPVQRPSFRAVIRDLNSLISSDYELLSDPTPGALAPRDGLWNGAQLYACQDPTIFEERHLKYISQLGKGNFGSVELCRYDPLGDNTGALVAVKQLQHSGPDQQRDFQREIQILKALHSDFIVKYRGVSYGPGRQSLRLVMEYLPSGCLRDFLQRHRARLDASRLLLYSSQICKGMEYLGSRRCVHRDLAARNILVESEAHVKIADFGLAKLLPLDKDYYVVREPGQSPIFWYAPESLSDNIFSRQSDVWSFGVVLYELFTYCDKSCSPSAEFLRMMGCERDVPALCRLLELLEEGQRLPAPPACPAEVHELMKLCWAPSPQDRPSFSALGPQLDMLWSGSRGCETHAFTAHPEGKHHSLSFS
- testName: Inhibition of human JAK3
pIC50: −log10 of the molar value.
measuredAttribute: pIC50

Fc1cccc(Cl)c1-c1nc2c3ccccc3c3ccccc3c2[nH]1 :: < 5.00

// next entry
Query: Fill blank: measured pIC50 of the molecule N#Cc1cccc(C#N)c1-c1nc2c3ccc(Cl)cc3c3ccccc3c2[nH]1 is ____.
Reply: < 5.00

###

- testSystem: Prostaglandin E synthase 2 (Homo sapiens, UniProt Q9H7Z7)
- Sequence (Q9H7Z7 whole entry): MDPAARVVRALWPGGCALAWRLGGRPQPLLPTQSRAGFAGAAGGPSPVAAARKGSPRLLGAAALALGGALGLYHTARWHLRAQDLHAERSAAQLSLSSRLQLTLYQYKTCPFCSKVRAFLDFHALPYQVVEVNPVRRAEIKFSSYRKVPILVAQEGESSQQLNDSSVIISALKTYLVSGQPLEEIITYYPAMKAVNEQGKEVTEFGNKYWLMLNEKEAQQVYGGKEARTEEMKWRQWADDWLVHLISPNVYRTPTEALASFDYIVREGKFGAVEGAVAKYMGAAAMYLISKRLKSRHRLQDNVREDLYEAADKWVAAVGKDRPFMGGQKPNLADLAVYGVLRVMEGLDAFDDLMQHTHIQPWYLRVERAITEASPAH
pIC50: −log10 of the molar value.
measuredAttribute: pIC50

Query: // query pIC50 value for entry N#Cc1cccc(C#N)c1-c1nc2c3ccc(Cl)cc3c3ccccc3c2[nH]1
Reply: < 4.52
